test system: Jurkat, clone E6-1; assay: Cell proliferation assay (CCK-8 or CellTiter-Glo, 72 hours); type: cell-based; settings: Homo sapiens, ALL, SDHB missense_variant p.A15T, read-out: Antiproliferation activity IC50, mean ± SD
pIC50: −log10 of the molar value.
Entries and their pIC50

These solved cases illustrate the format of a correct answer.
1. C=CC(=O)N[C@H]1CCOC[C@H]1Nc1ncc2cc(-c3c(Cl)c(OC)cc(OC)c3Cl)ccc2n1 [Fisogatinib] = < 5.00
2. CNC(=O)c1cc(Oc2ccc(NC(=O)Nc3ccc(Cl)c(C(F)(F)F)c3)c(F)c2)ccn1 [Regorafenib] = < 5.00

Attention now shifts to the item below.
In: State the recorded pIC50 for this entry: Cc1cc2cc(Oc3ccnc(Nc4cccc(CS(=O)(=O)NCCN(C)C)c4)n3)ccc2[nH]1 [Sulfatinib]
Out: < 5.00

FYI, the data here is from patent US20260287586A1.
